Below: a set of entries, each annotated with reported Plant response rating, Velvetleaf.
System: velvetleaf
assay-overview: Test A pre-/postemergence herbicide test
Type: in vivo, Abutilon theophrasti
conditions: preemergence; 500 g ai/ha; 0 to 100 scale, 0 is no effect and 100 is complete control

>  <compound>
O=C1NCC(c2ccc(C(F)(F)F)c(Cl)c2)C1C(=O)Nc1ccccc1C(F)(F)F (racemic) [Compound 251]

>  <Plant response rating, Velvetleaf>
0

$$$$
>  <compound>
O=C1NCC(c2ccc(C(F)(F)F)c(Cl)c2)C1C(=O)Nc1ccccc1F (racemic) [Compound 249]

>  <Plant response rating, Velvetleaf>
0

$$$$
>  <compound>
O=C1NCC(c2ccc(C(F)(F)F)nc2)C1C(=O)Nc1ccccc1F (racemic) [Compound 262]

>  <Plant response rating, Velvetleaf>
0

$$$$
>  <compound>
COc1ccc(C2CNC(=O)C2C(=O)Nc2ccccc2F)cc1F (racemic) [Compound 197]

>  <Plant response rating, Velvetleaf>
0

$$$$

Now for a further compound.
Problem: Request the reported Plant response rating, Velvetleaf associated with O=C1NCC(c2ccc(C(F)(F)F)nc2)C1C(=O)Nc1cccc(F)c1F (racemic) [Compound 263]
Result: 50

###

Test system: ryegrass, Italian
assay-overview: Test C pre-/postemergence herbicide test
Assay type: in vivo, Lolium multiflorum
conditions: Preemergence, 62 g ai/ha; scale 0 to 100
parameter: Plant response rating, Ryegrass, Italian
The answer should be a number; do not append a unit.

Worked examples follow.
>  <molecule>
O=C1NCC(c2cc(F)c(F)c(F)c2)C1C(=O)Nc1ccccc1F (racemic)

>  <parameter>
Plant response rating, Ryegrass, Italian

>  <quantitative-readout>
0

$$$$
>  <molecule>
O=C1NCC(c2ccc(F)c(Cl)c2)C1C(=O)Nc1cccc(F)c1F (stereo not drawn)

>  <parameter>
Plant response rating, Ryegrass, Italian

>  <quantitative-readout>
0

$$$$
>  <molecule>
O=C1NCC(c2ccc(F)c(C(F)(F)F)c2)C1C(=O)Nc1ccccc1C(F)(F)F (racemic)

>  <parameter>
Plant response rating, Ryegrass, Italian

>  <quantitative-readout>
40

$$$$

Problem: Form: Entry = O=C1NCC(c2cc(F)c(F)c(F)c2)C1C(=O)Nc1ccccc1C(F)(F)F (racemic) | System = ryegrass, Italian | Plant response rating, Ryegrass, Italian = ____
Result: 0

Problem: Please do the same for O=C1NCC(c2ccc(F)cc2)C1C(=O)Nc1cccc(F)c1F (racemic) as well.
Result: 15

Problem: Please do the same for O=C1NCC(c2ccc(F)cc2)C1C(=O)Nc1ccccc1F (racemic) as well.
Result: 0

###

Below: a set of entries, each annotated with reported Plant response rating, Pigweed.
Tested on: pigweed
assay-overview: Test A pre-/postemergence herbicide test
Type: in vivo, Amaranthus retroflexus
conditions: Postemergence, 125 g ai/ha; 0 to 100 scale, 0 is no effect, 100 is complete control
The answer should be a number; do not append a unit.

Worked examples follow.
>  <molecule>
Cc1cc(NC(=O)C2C(=O)NCC2c2cccc(C(F)(F)F)c2)ccc1F (racemic)

>  <parameter>
Plant response rating, Pigweed

>  <quantitative-readout>
0

$$$$
>  <molecule>
O=C1NCC(c2cccc(C3CC3)c2)C1C(=O)Nc1ccccc1F (racemic)

>  <parameter>
Plant response rating, Pigweed

>  <quantitative-readout>
40

$$$$
>  <molecule>
O=C1NCC(c2ccc(C(F)(F)F)c(F)c2)C1C(=O)Nc1ccccc1F (racemic)

>  <parameter>
Plant response rating, Pigweed

>  <quantitative-readout>
0

$$$$
>  <molecule>
O=C1NCC(c2ccc(C(F)(F)F)c(Cl)c2)C1C(=O)Nc1ccccc1C(F)(F)F (racemic)

>  <parameter>
Plant response rating, Pigweed

>  <quantitative-readout>
0

$$$$
>  <molecule>
Cc1ccc(C2CNC(=O)C2C(=O)Nc2cccc(F)c2)cc1 (racemic)

>  <parameter>
Plant response rating, Pigweed

>  <quantitative-readout>
40

$$$$

Problem: Form: Entry = O=C1NCC(c2ccc(Cl)cc2)C1C(=O)Nc1ccccc1F (centres unmarked) | System = pigweed | Plant response rating, Pigweed = ____
Result: 0

Problem: Please do the same for O=C1NCC(c2ccc(C(F)(F)F)nc2)C1C(=O)Nc1ccccc1F (racemic) as well.
Result: 0

Problem: Please do the same for CC(C)(C)c1cccc(C2CNC(=O)C2C(=O)Nc2ccccc2C(F)(F)F)c1 (racemic) as well.
Result: 0
